# test_conditions: in ethyl acetate, 300.65 K
parameter: solubility (mole fraction)

Short answer for Cc1c(C(=O)O)cccc1[N+](=O)[O-] : solubility (mole fraction) was 0.0423

----------
# test_conditions: in isopropanol, 288.15 K
parameter: solubility (mole fraction)
Answers are plain numbers.

Short answer for Cc1c(C(=O)O)cccc1[N+](=O)[O-] : solubility (mole fraction) was 0.0164

----------
# test_conditions: in isopropanol, 295.65 K
parameter: solubility (mole fraction)
One number for each entry.

Short answer for Cc1c(C(=O)O)cccc1[N+](=O)[O-] : solubility (mole fraction) was 0.023

----------
# test_conditions: in methanol, 310.65 K
parameter: solubility (mole fraction)

Short answer for Cc1c(C(=O)O)cccc1[N+](=O)[O-] : solubility (mole fraction) was 0.0529
